# SUBJECT OF TEST: Der p 1 (Dermatophagoides pteronyssinus (European house dust mite), UniProt P08176)
# Sequence (P08176 99-320): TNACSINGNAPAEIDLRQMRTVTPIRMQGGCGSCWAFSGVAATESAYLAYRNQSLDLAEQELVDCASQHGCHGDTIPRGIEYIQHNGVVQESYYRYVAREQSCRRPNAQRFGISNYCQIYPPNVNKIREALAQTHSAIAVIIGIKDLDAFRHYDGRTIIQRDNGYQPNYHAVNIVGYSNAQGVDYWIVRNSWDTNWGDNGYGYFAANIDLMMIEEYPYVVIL
# TEST SUMMARY: Der p 1 enzyme activity assay (FRET fluorogenic substrate)
# Assay type: biochemical
# CONDITION CONTEXT: threshold stated in text; read-out: Der p 1 IC50
OUTCOME MEASURE: IC50

These solved cases illustrate the format of a correct answer.
CC(C)[C@H](NC(=O)[C@H](C)NC(=O)[C@@H](NC(=O)c1ccccc1)C(C)(C)C)C(=O)C(=O)NCc1ccc(C(N)=O)cc1 [PVA-202]: < 0.02 µM
CC(C)[C@H](NC(=O)[C@H](C)NC(=O)[C@@H](Cc1ccc(F)c(F)c1)NC(=O)c1ccccc1)C(=O)C(=O)NC1CCCCC1 [PVA-028]: < 0.2 µM
CC(C)[C@H](NC(=O)[C@H](C)NC(=O)[C@H](Cc1ccccc1)NC(=O)c1ccncc1)C(=O)C(=O)NCc1cccc(S(N)(=O)=O)c1 [PVA-171]: < 0.2 µM

Item CC(=O)Nc1ccc(C(=O)N[C@H](C(=O)N[C@@H](C)C(=O)N[C@H](C(=O)C(=O)NCc2ccccc2)C(C)C)C(C)(C)C)cn1 [PVA-063] has what recorded IC50?
< 0.2 µM

How about CC(C)[C@H](NC(=O)[C@H](C)NC(=O)[C@@H](NC(=O)c1ccccc1)C(C)(C)C)C(=O)C(=O)N[C@@H](C)c1ccccc1 [PVA-133] ?
< 0.2 µM

Now give it for CC(=O)Nc1cc(C(=O)N[C@H](C(=O)N[C@@H](C)C(=O)N[C@H](C(=O)C(=O)NCc2ccccc2)C(C)C)C(C)(C)C)ccn1 [PVA-064] too.
< 0.2 µM

* * *

# SUBJECT OF TEST: Der p 1 (Dermatophagoides pteronyssinus (European house dust mite))
# TEST SUMMARY: Der p 1 enzyme activity assay (FRET fluorogenic substrate)
# Format: biochemical
# CONDITION CONTEXT: threshold stated in text; read-out: Der p 1 IC50
This listing pairs molecules with measured IC50.

Below are worked cases with known answers.
CC(C)[C@H](NC(=O)[C@H](C)NC(=O)[C@@H](NC(=O)c1ccccc1)C(C)(C)C)C(=O)C(=O)NCc1ccc(NC(N)=O)cc1 [PVA-194]: < 20 nM
CC(C)[C@H](NC(=O)[C@H](C)NC(=O)[C@H](Cc1ccccc1)NC(=O)c1ccncc1)C(=O)C(=O)NC1CCC1 [PVA-174]: < 200 nM
COCCNC(=O)C(=O)[C@@H](NC(=O)[C@H](C)NC(=O)[C@H](Cc1ccccc1)NC(=O)c1ccccc1)C(C)C [PVA-046]: < 200 nM
CC(C)[C@H](NC(=O)[C@H](C)NC(=O)[C@H](Cc1ccccc1)NC(=O)c1ccc2ncsc2c1)C(=O)C(=O)NCc1ccccc1 [PVA-051]: < 200 nM
CC(C)[C@H](NC(=O)[C@H](C)NC(=O)[C@@H](NC(=O)c1ccccc1)C(C)(C)C)C(=O)C(=O)NCC1CCN(C)CC1 [PVA-163]: < 200 nM

Query molecule follows.
# IC50 lookup, item CC(C)[C@H](NC(=O)[C@H](C)NC(=O)[C@@H](NC(=O)c1ccnc2ccccc12)C(C)(C)C)C(=O)C(=O)NCC(=O)N1CCN(C(C)C)CC1 [PVA-187]
< 20 nM

* * *

Let's look at some molecules and their measured IC50.
# SUBJECT OF TEST: Der p 1 (Dermatophagoides pteronyssinus (European house dust mite))
# TEST SUMMARY: Der p 1 enzyme activity assay (FRET fluorogenic substrate)
# Format: biochemical
# CONDITION CONTEXT: threshold stated in text; read-out: Der p 1 IC50

CC(C)[C@H](NC(=O)[C@H](C)NC(=O)[C@@H](NC(=O)c1ccnc2ccccc12)C(C)(C)C)C(=O)C(=O)NCc1ccccc1: < 20 nM

Proceeding to the next molecule to report its IC50.
Query for Der p 1 (Dermatophagoides pteronyssinus (European house dust mite)): what IC50 does the record show for CCCC[C@H](NC(=O)[C@H](C)NC(=O)[C@@H](NC(=O)c1ccccc1)C(C)(C)C)C(=O)C(=O)NC1CCCCC1 ?
< 20 nM

* * *

# SUBJECT OF TEST: Der p 1 (Dermatophagoides pteronyssinus (European house dust mite))
# TEST SUMMARY: Der p 1 enzyme activity assay (FRET fluorogenic substrate)
# Format: biochemical
# CONDITION CONTEXT: threshold stated in text; read-out: Der p 1 IC50
pIC50: −log10 of the molar value.
# maps each entry to its pIC50

Solved cases below.
CC(C)[C@H](NC(=O)[C@H](C)NC(=O)[C@@H](NC(=O)c1ccccc1)C(C)(C)C)C(=O)C(=O)NCc1ccc(Cl)cc1: > 6.70
CC(C)[C@H](NC(=O)[C@H](C)NC(=O)[C@@H](NC(=O)c1cnccn1)C(C)(C)C)C(=O)C(=O)NC1CCCCC1: > 6.70
CC(C)[C@H](NC(=O)[C@H](C)NC(=O)[C@@H](NC(=O)c1ccc(N2CCN(C)CC2)cc1)C(C)(C)C)C(=O)C(=O)NCc1ccccc1: > 6.70
CCCCC(NC(=O)[C@H](C)NC(=O)[C@H](Cc1ccccc1)NC(=O)c1ccccc1)C(=O)C(=O)N1CCCC1 (stereo partly shown): > 5.70
CC(C)[C@H](NC(=O)[C@H](C)NC(=O)[C@@H](NC(=O)c1cccc2[nH]ncc12)C(C)(C)C)C(=O)C(=O)NCc1ccccc1: > 7.70

# query: pIC50 of entry CC(C)[C@H](NC(=O)[C@H](C)NC(=O)[C@@H](NC(=O)c1ccccc1)C(C)(C)C)C(=O)C(=O)N[C@H](C)C(=O)N1CCN(C)CC1
> 6.70

CC(=O)Nc1cc(C(=O)N[C@H](C(=O)N[C@@H](C)C(=O)N[C@H](C(=O)C(=O)NC2CCCCC2)C(C)C)C(C)(C)C)ccn1 , same question.
> 6.70

Cool, now CC(C)[C@H](NC(=O)[C@H](C)NC(=O)[C@@H](N1Cc2ccccc2C1=O)C(C)(C)C)C(=O)C(=O)NCc1ccc(CN(C)C)cc1
> 7.70

Follow-up item: COC(=O)c1cccc(CNC(=O)C(=O)[C@@H](NC(=O)[C@H](C)NC(=O)[C@@H](NC(=O)c2ccccc2)C(C)(C)C)C(C)C)c1
> 7.70

For CC(C)[C@H](NC(=O)[C@H](C)NC(=O)[C@@H](NC(=O)c1ccccc1)C(C)(C)C)C(=O)C(=O)NCc1ccc(C(C)(C)C)cc1 then?
> 6.70

How about CC(C)[C@H](NC(=O)[C@H](C)NC(=O)[C@H](Cc1ccccc1)NC(=O)c1ccncc1)C(=O)C(=O)NCc1cccc(C(N)=O)c1 ?
> 7.70

Thanks! And CC(C)[C@H](NC(=O)[C@H](C)NC(=O)[C@H](Cc1ccccc1)NC(=O)c1ccncc1)C(=O)C(=O)NC1CCCC1 ?
> 6.70

Next compound: CC(C)[C@H](NC(=O)[C@H](C)NC(=O)[C@@H](NC(=O)c1ccccc1)C12CC3CC(CC(C3)C1)C2)C(=O)C(=O)NCc1ccc(S(N)(=O)=O)cc1
> 7.70

Subsequent entry: CC(C)[C@H](NC(=O)[C@H](C)NC(=O)[C@@H](N1Cc2ccccc2C1=O)C(C)(C)C)C(=O)C(=O)NCc1ccc(N2CCN(C)CC2)nc1
> 7.70

* * *

# SUBJECT OF TEST: UniProt:P08176
# TEST SUMMARY: Der p 1 enzyme activity assay (FRET fluorogenic substrate)
# Format: biochemical
# CONDITION CONTEXT: threshold stated in text; read-out: Der p 1 IC50
Each item that follows carries a reported IC50.

Before answering, review these 5 worked examples.
CC(C)[C@H](NC(=O)[C@H](C)NC(=O)[C@H](Cc1ccccc1)NC(=O)c1ccccc1)C(=O)C(=O)NCCc1ccccc1: < 200 nM
COc1ccc(CNC(=O)C(=O)[C@@H](NC(=O)[C@H](C)NC(=O)[C@H](Cc2ccccc2)NC(=O)c2ccncc2)C(C)C)cc1: < 200 nM
CC(C)[C@H](NC(=O)[C@H](C)NC(=O)[C@@H](NC(=O)c1ccnc2ccccc12)C(C)(C)C)C(=O)C(=O)NCC(=O)N1CCc2ccccc2C1: < 20 nM
CC(C)[C@H](NC(=O)[C@H](C)NC(=O)[C@H](Cc1ccccc1)NC(=O)c1ccccc1)C(=O)C(=O)NCc1ccccc1: < 20 nM
Cc1n[nH]c(C)c1C(=O)N[C@H](C(=O)N[C@@H](C)C(=O)N[C@H](C(=O)C(=O)NCc1ccccc1)C(C)C)C(C)(C)C: < 200 nM

Value lookup for IC50; key = CC(C)[C@H](NC(=O)[C@H](C)NC(=O)[C@H](Cc1ccccc1)NC(=O)c1ccccc1)C(=O)C(=O)NC1CCOCC1
< 200 nM

And CC(C)[C@H](NC(=O)[C@H](C)NC(=O)[C@@H](Cc1ccccc1F)NC(=O)c1ccccc1)C(=O)C(=O)NC1CCCCC1 ?
< 200 nM

Same lookup for Cc1cc(CNC(=O)C(=O)[C@@H](NC(=O)[C@H](C)NC(=O)[C@@H](NC(=O)c2ccccc2)C(C)(C)C)C(C)C)no1 , please.
< 200 nM

Same read-out for CNC(=O)c1ccc(CNC(=O)C(=O)[C@@H](NC(=O)[C@H](C)NC(=O)[C@@H](NC(=O)c2ccccc2)C(C)(C)C)C(C)C)cc1 ?
< 20 nM
